IC50 for Nitric oxide synthase 1 (Homo sapiens), merged from several publications.
READOUT: IC50 (nM)

compound=Nc1cc2c(cn1)CCCC2 readout_value=10600
compound="CC1CCCC(N)=N1 (stereo not drawn)" readout_value=400
compound=C[C@@H]1CC(N)=N[C@@H]2CCCCC[C@H]12 readout_value=1300
compound=COc1ccnc(N)c1 readout_value=1000

1 = CN1CCC(c2c[nH]c3ccc(NC(=N)c4cccs4)cc23)CC1
2 = CC(=N)NCCSCC[C@H](N)C(=O)O
3 = N#Cc1ccc2oc(O)nc2c1
Query: rank_up(items): orders items by reported IC50 in ascending numerical order. Put the labels in the requested order and list them out.
Reply: 1, 2, 3
